Every entry's value here was drawn from patent US20240262926A1.

experimental_target: T1, recombinant human TfR (r human TfR: Sino Biological Inc.) (human, UniProt P02786 89-760)
T1 construct: Bought product; also called r human TfR-ECD (Histag); hTfR; not shown: histidine tag attached to the N-terminus
T1 sequence (P02786 89-760): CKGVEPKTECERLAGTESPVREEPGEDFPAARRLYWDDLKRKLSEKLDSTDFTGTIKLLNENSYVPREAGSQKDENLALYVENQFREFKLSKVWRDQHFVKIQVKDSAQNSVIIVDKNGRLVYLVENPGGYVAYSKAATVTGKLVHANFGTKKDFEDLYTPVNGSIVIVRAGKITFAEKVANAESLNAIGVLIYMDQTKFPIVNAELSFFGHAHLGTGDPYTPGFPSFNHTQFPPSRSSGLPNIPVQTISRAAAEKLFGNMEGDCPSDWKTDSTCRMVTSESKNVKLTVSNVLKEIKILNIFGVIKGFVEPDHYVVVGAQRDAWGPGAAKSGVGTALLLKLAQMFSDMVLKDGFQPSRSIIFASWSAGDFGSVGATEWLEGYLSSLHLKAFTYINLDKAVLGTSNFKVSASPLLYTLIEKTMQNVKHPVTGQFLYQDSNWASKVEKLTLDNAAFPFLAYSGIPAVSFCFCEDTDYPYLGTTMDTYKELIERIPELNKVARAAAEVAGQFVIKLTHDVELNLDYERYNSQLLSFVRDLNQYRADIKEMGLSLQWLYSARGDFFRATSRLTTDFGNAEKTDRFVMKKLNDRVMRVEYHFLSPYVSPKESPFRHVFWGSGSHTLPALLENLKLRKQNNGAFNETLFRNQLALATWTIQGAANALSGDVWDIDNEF
procedure_text: BLI (Octet RED96), His-tagged TfR ECD loaded on Ni-NTA sensor, antibody as analyte
readout: koff (s⁻¹)
The answer is to be given in s⁻¹; state only the numeric part.

Lookup: Returns the measured koff for the input binder. Input: anti-hTfR antibody No. 11 (antibody, V domains shown, Mouse hybridoma antibody purified on Protein G; also called mouse anti-hTfR antibody No. 11; product of Clone 11 line) VH: EVQLQESGAELVRPGSSVKISCKASGYAFSIYWINWLKQRPGQGLEWIGQIYPGNGDTNYNGKFKGKATLTADKSSNTVYMRLSSLTSEDSAVYFCGRWGDDYAMDFWGQGTSVTVSS VL: DIVLTQSPATLSVTPGDRVSLSCRASQSIRNYLHWYQQKSHESPRLLIKYASQSISGIPSRFSGSGSGTDFTLSINSVETEDFGMYFCQQTNSWPYTFGGGTKLEIK
Found: 2.28e-05

Lookup: Returns the measured koff for the input binder. Input: anti-hTfR antibody No. 4 (antibody, V domains shown, Mouse hybridoma antibody purified on Protein G; also called mouse anti-hTfR antibody No. 4; product of Clone 4 line) VH: EVQLQESGAELVRPGTSVRVFCKASGYAFTNYLIEWVKQRPGQGLEWIGLINPGSGGIIYNEKFTDRATLTADKSSSTAYMQLSSLTSDDSAVYFCARSNYYGTTYWHFDVWGAGTTVTVSS VL: DIVLTQTPAIMSASPGEKVTMTCSASSNVNYMHWYQQKSSTSPKLWIYDTSKLASGVPGRFSGSGSGNSYSLTISSMEAEDVATYYCFQGNGNPYTFGGGTKLEIK
Found: 0.000229
